Numbers sourced from PubChem BioAssay.

tested on: TRPC4 (transient receptor potential cation channel C4 beta), mouse; assay: potentiation of DAMGO EC20 TRPC4 response – cell-based, second round, Fluo-4, HEK293 TRPC4beta/mu-opioid, 1 µM, confirmation (AID 2554); conditions: DAMGO EC20, Fluo-4 calcium flux, at 1 µM
Activity calls are given as the source filed them.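 Rule for the calls: active = primary screen hit whose fluorescence ratio, in both repeats, exceeds the weak agonist control mean by 3 SD; inactive = the rest.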
Outcomes: y for active, n for inactive

[
  {
    "Compound": "Cc1cccc(OCCn2c(=O)sc3ccccc32)c1",
    "Subject Of Test": "TRPC4 (transient receptor potential cation channel C4 beta), mouse",
    "Cat": "n"
  },
  {
    "Compound": "Cc1ccc(S(=O)(=O)c2c(C(=O)c3ccccc3)cnc3cc4c(cc23)OCCO4)cc1",
    "Subject Of Test": "TRPC4 (transient receptor potential cation channel C4 beta), mouse",
    "Cat": "n"
  },
  {
    "Compound": "C=CCOc1ccc(Br)cc1CNC(C)(C)CO",
    "Subject Of Test": "TRPC4 (transient receptor potential cation channel C4 beta), mouse",
    "Cat": "n"
  },
  {
    "Compound": "CN1CCN(Cc2cccc(Oc3ccc(Cl)cc3)c2)CC1",
    "Subject Of Test": "TRPC4 (transient receptor potential cation channel C4 beta), mouse",
    "Cat": "y"
  },
  {
    "Compound": "C=C(C)COc1ccc(-c2nc(N)ncc2-c2ccccc2OC)c(O)c1",
    "Subject Of Test": "TRPC4 (transient receptor potential cation channel C4 beta), mouse",
    "Cat": "n"
  },
  {
    "Compound": "Cc1cc(OCC(=O)NNC(=S)NC(=O)c2ccc(Br)o2)ccc1Cl",
    "Subject Of Test": "TRPC4 (transient receptor potential cation channel C4 beta), mouse",
    "Cat": "n"
  },
  {
    "Compound": "CC(=O)OCCCN1C(=O)c2cccc3cc(Br)cc(c23)C1=O",
    "Subject Of Test": "TRPC4 (transient receptor potential cation channel C4 beta), mouse",
    "Cat": "n"
  },
  {
    "Compound": "Cc1nc2scc(-c3ccccc3)c2c(=O)n1N=C1C=CC(=O)C=C1",
    "Subject Of Test": "TRPC4 (transient receptor potential cation channel C4 beta), mouse",
    "Cat": "n"
  },
  {
    "Compound": "CCNC(=S)N/N=C/c1cc(C)n(-c2ccc(Cl)cc2)c1C",
    "Subject Of Test": "TRPC4 (transient receptor potential cation channel C4 beta), mouse",
    "Cat": "n"
  },
  {
    "Compound": "CCN(CC)Cc1cc(CCNC(=O)c2ccc(Cl)cc2)ccc1O",
    "Subject Of Test": "TRPC4 (transient receptor potential cation channel C4 beta), mouse",
    "Cat": "n"
  },
  {
    "Compound": "CCn1c(N2CCN(S(=O)(=O)CC)CC2)nc2ccccc21",
    "Subject Of Test": "TRPC4 (transient receptor potential cation channel C4 beta), mouse",
    "Cat": "n"
  },
  {
    "Compound": "CCOc1cc(CNCc2cccs2)ccc1OCC(=O)NC(C)(C)C",
    "Subject Of Test": "TRPC4 (transient receptor potential cation channel C4 beta), mouse",
    "Cat": "n"
  },
  {
    "Compound": "CCCOc1ccc(Br)cc1/C=N/O",
    "Subject Of Test": "TRPC4 (transient receptor potential cation channel C4 beta), mouse",
    "Cat": "n"
  },
  {
    "Compound": "COc1cc(OC)c2c(-c3ccccc3)cc(=O)oc2c1C(CCN1CCCCC1)c1ccc(N(C)C)cc1 (centres undefined)",
    "Subject Of Test": "TRPC4 (transient receptor potential cation channel C4 beta), mouse",
    "Cat": "n"
  },
  {
    "Compound": "Cc1ccc(C)c2c(N)c3c(nc12)CCCCC3 (tested in a mixture with another compound)",
    "Subject Of Test": "TRPC4 (transient receptor potential cation channel C4 beta), mouse",
    "Cat": "n"
  },
  {
    "Compound": "Cc1ccc(Sc2ccc(CO)cc2[N+](=O)[O-])cc1",
    "Subject Of Test": "TRPC4 (transient receptor potential cation channel C4 beta), mouse",
    "Cat": "n"
  },
  {
    "Compound": "CCCn1nc([N+](=O)[O-])c(C(C#N)c2nc3ccccc3o2)c(Cl)c1=O (centres undefined)",
    "Subject Of Test": "TRPC4 (transient receptor potential cation channel C4 beta), mouse",
    "Cat": "n"
  },
  {
    "Compound": "Cc1ccc(-c2ccc3c(c2)S(=O)(=O)c2ccccc2C3=O)cc1",
    "Subject Of Test": "TRPC4 (transient receptor potential cation channel C4 beta), mouse",
    "Cat": "n"
  },
  {
    "Compound": "COc1ccc(N2CCN(Cc3nc4ccccc4n3C)CC2)cc1",
    "Subject Of Test": "TRPC4 (transient receptor potential cation channel C4 beta), mouse",
    "Cat": "n"
  },
  {
    "Compound": "COc1ccc(CN(C)C(=O)c2ccc(NC(=O)CC3SC(N4CCCC4)=NC3=O)cc2)c(OC)c1 (centres undefined)",
    "Subject Of Test": "TRPC4 (transient receptor potential cation channel C4 beta), mouse",
    "Cat": "n"
  },
  {
    "Compound": "COc1ccc(C(=O)NNC(=O)CN2CCC(n3nnc4cc(C)ccc43)CC2)cc1",
    "Subject Of Test": "TRPC4 (transient receptor potential cation channel C4 beta), mouse",
    "Cat": "y"
  },
  {
    "Compound": "Cc1ccc(C(=O)Nc2nnc(C3=COCCO3)o2)cc1C",
    "Subject Of Test": "TRPC4 (transient receptor potential cation channel C4 beta), mouse",
    "Cat": "n"
  },
  {
    "Compound": "Cc1ccc(C)c(S(=O)(=O)/N=C2\\C=C(NS(=O)(=O)c3ccccc3)C(=O)c3ccccc32)c1",
    "Subject Of Test": "TRPC4 (transient receptor potential cation channel C4 beta), mouse",
    "Cat": "n"
  },
  {
    "Compound": "CCN1CCN(c2ccc(S(=O)(=O)N3CCCCC3)cc2NC(=O)COc2cc(C)ccc2Cl)CC1",
    "Subject Of Test": "TRPC4 (transient receptor potential cation channel C4 beta), mouse",
    "Cat": "n"
  },
  {
    "Compound": "Cc1ccc(CNC(C)c2ccccc2)cc1 (centres undefined)",
    "Subject Of Test": "TRPC4 (transient receptor potential cation channel C4 beta), mouse",
    "Cat": "n"
  },
  {
    "Compound": "Clc1cc(/C=N\\NC2=NCCN2)cc(Cl)n1",
    "Subject Of Test": "TRPC4 (transient receptor potential cation channel C4 beta), mouse",
    "Cat": "n"
  },
  {
    "Compound": "CC1CCN(CCCCOc2ccc([N+](=O)[O-])cc2)CC1",
    "Subject Of Test": "TRPC4 (transient receptor potential cation channel C4 beta), mouse",
    "Cat": "n"
  },
  {
    "Compound": "CN(C)CCCNc1c2c(nc3cc(-c4cccc(F)c4)nn13)CCC2",
    "Subject Of Test": "TRPC4 (transient receptor potential cation channel C4 beta), mouse",
    "Cat": "n"
  },
  {
    "Compound": "CC(C)c1nc(N2CCOCC2)c(C#N)c2c1CCCC2",
    "Subject Of Test": "TRPC4 (transient receptor potential cation channel C4 beta), mouse",
    "Cat": "n"
  },
  {
    "Compound": "CCCC1(c2ccccc2)NC(=O)N(CC(=O)c2[nH]c(C)c(C(=O)OCC)c2C)C1=O (centres undefined)",
    "Subject Of Test": "TRPC4 (transient receptor potential cation channel C4 beta), mouse",
    "Cat": "n"
  },
  {
    "Compound": "NC(=O)c1nsc(C(=O)N(Cc2ccccc2F)C(C(=O)NCC2CCCO2)c2ccc(F)cc2)c1N (centres undefined)",
    "Subject Of Test": "TRPC4 (transient receptor potential cation channel C4 beta), mouse",
    "Cat": "n"
  },
  {
    "Compound": "c1ccc2c3c([nH]c2c1)CCNC3",
    "Subject Of Test": "TRPC4 (transient receptor potential cation channel C4 beta), mouse",
    "Cat": "n"
  },
  {
    "Compound": "O=C(COc1ccc(Cl)cc1)Nc1ccc(C(=O)O)cc1NC(=O)COc1ccc(Cl)cc1",
    "Subject Of Test": "TRPC4 (transient receptor potential cation channel C4 beta), mouse",
    "Cat": "n"
  },
  {
    "Compound": "Cc1cc(OCC(=O)N2CCCC2)cc(C)c1Cl",
    "Subject Of Test": "TRPC4 (transient receptor potential cation channel C4 beta), mouse",
    "Cat": "n"
  },
  {
    "Compound": "O=C1CN=C(Nc2cccc(C(F)(F)F)c2)N1C1CCCC1",
    "Subject Of Test": "TRPC4 (transient receptor potential cation channel C4 beta), mouse",
    "Cat": "n"
  },
  {
    "Compound": "Cc1ccc(C)c(-n2cc(CNCCCn3cccn3)c(-c3ccccc3)n2)c1",
    "Subject Of Test": "TRPC4 (transient receptor potential cation channel C4 beta), mouse",
    "Cat": "n"
  },
  {
    "Compound": "CC1(c2ccccc2)CC(C)(C)N(C(=O)C2CCCO2)c2ccccc21 (centres undefined)",
    "Subject Of Test": "TRPC4 (transient receptor potential cation channel C4 beta), mouse",
    "Cat": "n"
  },
  {
    "Compound": "Cc1ccc(CNC(=O)C2CCCN(Cc3cnn(-c4ccccc4)c3-n3cccc3)C2)cc1 (centres undefined)",
    "Subject Of Test": "TRPC4 (transient receptor potential cation channel C4 beta), mouse",
    "Cat": "n"
  },
  {
    "Compound": "Nc1cc(N2CCCCC2)c([N+](=O)[O-])cc1Cl",
    "Subject Of Test": "TRPC4 (transient receptor potential cation channel C4 beta), mouse",
    "Cat": "n"
  },
  {
    "Compound": "S=C(Nc1ccccc1)Nc1cc(Cl)ccc1Oc1ccccc1",
    "Subject Of Test": "TRPC4 (transient receptor potential cation channel C4 beta), mouse",
    "Cat": "n"
  },
  {
    "Compound": "O=C(NCc1cccs1)C12CC3CC(CC(C3)C1)C2",
    "Subject Of Test": "TRPC4 (transient receptor potential cation channel C4 beta), mouse",
    "Cat": "n"
  },
  {
    "Compound": "COc1ccc(Sc2nc(-c3ccccc3)ncc2C(=O)O)cc1",
    "Subject Of Test": "TRPC4 (transient receptor potential cation channel C4 beta), mouse",
    "Cat": "n"
  },
  {
    "Compound": "CCCCc1nnc(NC(=O)C2CCN(c3ncnc4sc(C)c(C)c34)CC2)s1",
    "Subject Of Test": "TRPC4 (transient receptor potential cation channel C4 beta), mouse",
    "Cat": "n"
  },
  {
    "Compound": "CCOC(=O)C1(Cc2cccc(F)c2)CCN(Cc2cnn(CC)c2C)CC1",
    "Subject Of Test": "TRPC4 (transient receptor potential cation channel C4 beta), mouse",
    "Cat": "n"
  }
]
